Target: T1, exon 6 peptide (ASSLRNDSSSSNRKAKNPPGDS), coated on ELISA plate (not fully specified)
T1 construct: No biotin is mentioned for the ELISA coat; also called a peptide of SCF248
T1 peptide: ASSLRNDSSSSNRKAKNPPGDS
Experiment: direct ELISA on coated peptide, IgG4, read at 450 nm
VALUE_TYPE: absorbance at 0.5 ng/mL antibody (absorbance)
Write the answer as a number in absorbance, unit excluded.

Exam item: What value of absorbance at 0.5 ng/mL antibody has been recorded for this entry: B124P mutant expressed as full length IgG4 antibody (antibody, V domains shown, Full length IgG4) VH: QVQLVQSGAELKKPGSSVKISCKSSGYAFSSNWMNWVKQRPGQGLEWIGQIYPEDGDTHYNDKFKGKATLTADKSTSTAYMELSSLTSEDSAVYFCSSSNWVGSYWGQGTLVTVSS VL: DVVMTQSPLSLPVTLGQPASISCKSSQSLLEQDGNTYLNWLQQRPGQSPRRLIYLVDRLDSGVPDRFSGSGSGTDFTLKISRVEAEDVGVYYCWQGTDLPQTFGGGTKVEIK
Marked response: 0.183

More entries:
Exam item: What value of absorbance at 0.5 ng/mL antibody has been recorded for this entry: H83P mutant expressed as full length IgG4 antibody (antibody, V domains shown, Full length IgG4) VH: QVQLVQSGAELKKPGSSVKISCKSSGYAFSSQWMNWVKQRPGQGLEWIGQIYPGDGDIHYNDKFKGKATLTADKSTSTAYMELSSLTSEDSAVYFCSSSNWVGSYWGQGTLVTVSS VL: DVVMTQSPLSLPVTLGQPASISCKSSQSLLESDGNTYLNWLQQRPGQSPRRLIYLVDRLDSGVPDRFSGSGSGTDFTLKISRVEAEDVGVYYCWQGTDLPQTFGGGTKVEIK
Marked response: 0.537

Exam item: What value of absorbance at 0.5 ng/mL antibody has been recorded for this entry: D44P mutant expressed as full length IgG4 antibody (antibody, V domains shown, Full length IgG4) VH: QVQLVQSGAELKKPGSSVKISCKSSGYAFSSQWMNWVKQRPGQGLEWIGQIYPEDGDIHYNGKFKGKATLTADKSTSTAYMELSSLTSEDSAVYFCSSSNWVGSYWGQGTLVTVSS VL: DVVMTQSPLSLPVTLGQPASISCKSSQSLLEEDGNTYLNWLQQRPGQSPRRLIYLVDRLDSGVPDRFSGSGSGTDFTLKISRVEAEDVGVYYCWQGSHLPQTFGGGTKVEIK
Marked response: 0.207

Exam item: What value of absorbance at 0.5 ng/mL antibody has been recorded for this entry: A64P mutant expressed as full length IgG4 antibody (antibody, V domains shown, Full length IgG4) VH: QVQLVQSGAELKKPGSSVKISCKSSGYAFSSNWMNWVKQRPGQGLEWIGQIYPEDGDTHYNGKFKGKATLTADKSTSTAYMELSSLTSEDSAVYFCSSSNWVGSYWGQGTLVTVSS VL: DVVMTQSPLSLPVTLGQPASISCKSSQSLLEEDGNTYLNWLQQRPGQSPRRLIYLVNRLDDGVPDRFSGSGSGTDFTLKISRVEAEDVGVYYCWQGTDLPQTFGGGTKVEIK
Marked response: 0.172

Exam item: What value of absorbance at 0.5 ng/mL antibody has been recorded for this entry: D14P mutant expressed as full length IgG4 antibody (antibody, V domains shown, Full length IgG4) VH: QVQLVQSGAELKKPGSSVKISCKSSGYAFSSQWMNWVKQRPGQGLEWIGQIYPGDDDTHYNDKFKGKATLTADKSTSTAYMELSSLTSEDSAVYFCSSSNWVGSYWGQGTLVTVSS VL: DVVMTQSPLSLPVTLGQPASISCKSSQSLLESDGNTYLNWLQQRPGQSPRRLIYLVDRLDLGVPDRFSGSGSGTDFTLKISRVEAEDVGVYYCWQGTDLPQTFGGGTKVEIK
Marked response: 0.266

Exam item: What value of absorbance at 0.5 ng/mL antibody has been recorded for this entry: F54P mutant expressed as full length IgG4 antibody (antibody, V domains shown, Full length IgG4) VH: QVQLVQSGAELKKPGSSVKISCKSSGYAFSSQWMNWVKQRPGQGLEWIGQIYPEDGDTHMNGKFKTKATLTADKSTSTAYMELSSLTSEDSAVYFCSSSNWVGSYWGQGTLVTVSS VL: DVVMTQSPLSLPVTLGQPASISCKSSQSLLEEDGNTYLNWLQQRPGQSPRRLIYLVDRLDSGVPDRFSGSGSGTDFTLKISRVEAEDVGVYYCWQGTDLPQTFGGGTKVEIK
Marked response: 0.367

Exam item: What value of absorbance at 0.5 ng/mL antibody has been recorded for this entry: B104P mutant expressed as full length IgG4 antibody (antibody, V domains shown, Full length IgG4) VH: QVQLVQSGAELKKPGSSVKISCKSSGYAFSSQWMNWVKQRPGQGLEWIGQIYPDDGDTHYNDKFKGKATLTADKSTSTAYMELSSLTSEDSAVYFCSSSNWVGSYWGQGTLVTVSS VL: DVVMTQSPLSLPVTLGQPASISCKSSQSLLEADGNTYLNWLQQRPGQSPRRLIYLVDRLDSGVPDRFSGSGSGTDFTLKISRVEAEDVGVYYCWQGTDLPQTFGGGTKVEIK
Marked response: 0.174

Exam item: What value of absorbance at 0.5 ng/mL antibody has been recorded for this entry: A104P mutant expressed as full length IgG4 antibody (antibody, V domains shown, Full length IgG4) VH: QVQLVQSGAELKKPGSSVKISCKSSGYAFSSQWMNWVKQRPGQGLEWIGQIYPEDGDTHYNGKFKGKATLTADKSTSTAYMELSSLTSEDSAVYFCSSSNWVGSYWGQGTLVTVSS VL: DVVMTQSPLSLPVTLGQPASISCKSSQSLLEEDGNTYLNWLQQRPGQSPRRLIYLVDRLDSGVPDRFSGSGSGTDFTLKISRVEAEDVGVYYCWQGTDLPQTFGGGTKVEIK
Marked response: 0.305

Exam item: What value of absorbance at 0.5 ng/mL antibody has been recorded for this entry: A84P mutant expressed as full length IgG4 antibody (antibody, V domains shown, Full length IgG4) VH: QVQLVQSGAELKKPGSSVKISCKSSGYAFSSQWMNWVKQRPGQGLEWIGQIYPEDGDTHMNGKFKGKATLTADKSTSTAYMELSSLTSEDSAVYFCSSSNWVGSYWGQGTLVTVSS VL: DVVMTQSPLSLPVTLGQPASISCKSSQSLLEEDGNTYLNWLQQRPGQSPRRLIYLVDRLDIGVPDRFSGSGSGTDFTLKISRVEAEDVGVYYCWQGTDLPQTFGGGTKVEIK
Marked response: 0.193

Reference for the values: patent US20240182556A1
